target: N neuronal α-BGTX-insensitive (α4β2) (Rattus norvegicus, UniProt P09483+P12390); construct: rat cerebral cortex; from tissue; host or cells: rat cerebral cortex; assay: Binding N neuronal α-BGTX-insensitive (α4β2) (ag); conditions: read-out: % Inhibition of Control Specific Binding @ 10 μM
Sequence (P09483 31-630): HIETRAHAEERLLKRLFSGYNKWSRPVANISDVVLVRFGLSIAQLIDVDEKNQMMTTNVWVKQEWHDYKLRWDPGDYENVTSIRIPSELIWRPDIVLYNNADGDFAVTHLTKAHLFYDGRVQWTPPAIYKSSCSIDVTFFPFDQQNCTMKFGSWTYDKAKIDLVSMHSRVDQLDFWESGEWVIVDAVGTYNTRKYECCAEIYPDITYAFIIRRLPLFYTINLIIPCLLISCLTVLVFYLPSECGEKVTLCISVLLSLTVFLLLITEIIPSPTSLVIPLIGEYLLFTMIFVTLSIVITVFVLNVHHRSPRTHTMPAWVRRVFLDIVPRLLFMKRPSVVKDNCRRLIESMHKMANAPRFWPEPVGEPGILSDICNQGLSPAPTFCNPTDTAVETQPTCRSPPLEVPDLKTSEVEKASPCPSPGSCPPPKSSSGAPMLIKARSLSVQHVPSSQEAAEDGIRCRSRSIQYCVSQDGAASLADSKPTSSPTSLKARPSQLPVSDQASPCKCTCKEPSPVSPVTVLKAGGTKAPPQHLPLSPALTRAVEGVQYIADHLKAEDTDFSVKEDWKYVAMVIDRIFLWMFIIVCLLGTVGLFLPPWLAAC
Sequence (P12390 25-500): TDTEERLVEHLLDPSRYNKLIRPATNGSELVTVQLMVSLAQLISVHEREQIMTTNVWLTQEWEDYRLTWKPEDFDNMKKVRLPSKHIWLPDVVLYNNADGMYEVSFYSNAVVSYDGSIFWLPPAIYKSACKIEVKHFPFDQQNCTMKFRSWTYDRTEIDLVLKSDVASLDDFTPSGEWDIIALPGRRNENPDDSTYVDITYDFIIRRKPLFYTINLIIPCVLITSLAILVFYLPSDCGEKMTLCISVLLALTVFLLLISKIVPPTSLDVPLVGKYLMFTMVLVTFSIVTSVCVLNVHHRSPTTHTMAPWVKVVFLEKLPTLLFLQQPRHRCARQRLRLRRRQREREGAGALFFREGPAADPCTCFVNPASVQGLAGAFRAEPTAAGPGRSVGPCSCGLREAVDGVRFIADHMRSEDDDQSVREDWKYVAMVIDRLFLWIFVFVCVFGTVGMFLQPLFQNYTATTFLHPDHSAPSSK
I'd appreciate it if you could supply inhibition at 10 µM values for the items below.
Give the value; after it, write the unit.

Use the examples below as a reference point.
CC1(C)C(=O)N(c2ccc(C#N)c(C(F)(F)F)c2)C(=S)N1c1ccc(C(N)=O)c(F)c1 | -3%
CC1(C)C(=O)N(c2ccc(C#N)c(C(F)(F)F)c2)C(=O)N1c1ccc(C(N)=O)c(F)c1 | -11%
CC1(C)C(=O)N(c2ccc(C#N)c(C(F)(F)F)c2)C(=S)N1c1ccc(C(=O)O)c(F)c1 | 0%

Note: attention shifts to another entry.
# inhibition at 10 µM (compound: `CNC(=O)c1ccc(N2C(=O)N(c3ccc(C#N)c(C(F)(F)F)c3)C(=O)C2(C)C)cc1F` ) is -3%

====

molecular target: PDE2A (h) (Homo sapiens); construct: host or cells: Sf9 cells; assay: Enzyme assay PDE2A (h); assay type: biochemical; conditions: read-out: % Inhibition of Control Values @ 10 μM
Sequence (O00408 whole entry): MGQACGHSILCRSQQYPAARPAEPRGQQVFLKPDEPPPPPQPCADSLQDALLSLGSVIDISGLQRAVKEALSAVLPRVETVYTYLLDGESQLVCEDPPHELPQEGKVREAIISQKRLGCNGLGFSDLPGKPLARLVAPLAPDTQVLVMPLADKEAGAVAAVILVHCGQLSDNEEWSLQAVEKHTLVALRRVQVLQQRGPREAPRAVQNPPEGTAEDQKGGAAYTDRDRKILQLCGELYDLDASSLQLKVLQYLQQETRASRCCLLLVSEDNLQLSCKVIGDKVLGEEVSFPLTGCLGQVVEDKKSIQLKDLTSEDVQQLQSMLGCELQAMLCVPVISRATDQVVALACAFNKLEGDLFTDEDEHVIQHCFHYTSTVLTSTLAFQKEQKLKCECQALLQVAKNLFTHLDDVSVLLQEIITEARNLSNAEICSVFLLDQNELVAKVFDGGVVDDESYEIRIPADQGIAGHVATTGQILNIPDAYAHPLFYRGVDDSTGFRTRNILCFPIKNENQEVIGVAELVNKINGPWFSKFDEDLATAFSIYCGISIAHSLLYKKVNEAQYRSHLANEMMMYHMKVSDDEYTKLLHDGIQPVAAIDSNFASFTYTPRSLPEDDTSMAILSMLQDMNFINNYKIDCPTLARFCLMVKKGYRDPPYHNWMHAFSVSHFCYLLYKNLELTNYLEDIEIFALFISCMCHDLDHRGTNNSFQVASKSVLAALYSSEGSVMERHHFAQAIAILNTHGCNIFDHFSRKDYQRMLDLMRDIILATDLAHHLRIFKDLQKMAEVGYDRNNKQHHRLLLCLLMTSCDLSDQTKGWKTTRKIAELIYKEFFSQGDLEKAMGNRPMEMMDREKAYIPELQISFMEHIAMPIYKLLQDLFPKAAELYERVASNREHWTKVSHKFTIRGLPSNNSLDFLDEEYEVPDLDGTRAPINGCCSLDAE
assay metric: inhibition at 10 µM
Please answer in the form of a number followed by its unit of measurement.

In the examples that follow, each entry is paired with its recorded inhibition at 10 µM.
CC1(C)C(=O)N(c2ccc(C#N)c(C(F)(F)F)c2)C(=O)N1c1ccc(C(N)=O)c(F)c1 [(MIII)] | 2%
CC1(C)C(=O)N(c2ccc(C#N)c(C(F)(F)F)c2)C(=S)N1c1ccc(C(N)=O)c(F)c1 [(MII)] | 2%
CC1(C)C(=O)N(c2ccc(C#N)c(C(F)(F)F)c2)C(=S)N1c1ccc(C(=O)O)c(F)c1 [(MI)] | 12%

// sample CNC(=O)c1ccc(N2C(=O)N(c3ccc(C#N)c(C(F)(F)F)c3)C(=O)C2(C)C)cc1F [(MIV)] , its inhibition at 10 µM was 0%

====

Task for the reader: assign each of the following compounds its reported inhibition at 10 µM.
target: Angiotensin AT2 (h) (Homo sapiens, UniProt P50052); construct: expressed in transfected cells; host or cells: CHO cells; test: Binding AT2 (h); conditions: AT2 (h) (aa), read-out: % Inhibition of Control Specific Binding @ 10 μM
Sequence (P50052 whole entry): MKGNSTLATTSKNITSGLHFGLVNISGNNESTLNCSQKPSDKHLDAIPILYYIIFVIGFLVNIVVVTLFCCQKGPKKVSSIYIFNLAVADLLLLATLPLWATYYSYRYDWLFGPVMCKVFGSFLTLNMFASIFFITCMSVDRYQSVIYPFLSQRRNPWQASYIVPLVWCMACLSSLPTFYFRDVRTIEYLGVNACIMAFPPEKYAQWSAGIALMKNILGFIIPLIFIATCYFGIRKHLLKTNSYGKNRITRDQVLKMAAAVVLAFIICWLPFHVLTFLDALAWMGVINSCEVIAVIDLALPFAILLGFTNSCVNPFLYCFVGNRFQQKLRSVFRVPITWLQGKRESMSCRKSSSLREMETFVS
Answers are plain numbers, in %.

CC1(C)C(=O)N(c2ccc(C#N)c(C(F)(F)F)c2)C(=S)N1c1ccc(C(N)=O)c(F)c1 | -6
CC1(C)C(=O)N(c2ccc(C#N)c(C(F)(F)F)c2)C(=O)N1c1ccc(C(N)=O)c(F)c1 | -2

For each of the compounds below, state inhibition at 10 µM.
1. CC1(C)C(=O)N(c2ccc(C#N)c(C(F)(F)F)c2)C(=S)N1c1ccc(C(=O)O)c(F)c1
2. CNC(=O)c1ccc(N2C(=O)N(c3ccc(C#N)c(C(F)(F)F)c3)C(=O)C2(C)C)cc1F

-1
1

====

system: Adrenergic α1 (ns); assay: Binding α1 (ns) (aa); design: species or system rat
assay metric: % Inhibition of Control Specific Binding @ 10 μM (%)
One number for each entry, in %.

CC1(C)C(=O)N(c2ccc(C#N)c(C(F)(F)F)c2)C(=S)N1c1ccc(C(=O)O)c(F)c1 [(MI)] | −4
CC1(C)C(=O)N(c2ccc(C#N)c(C(F)(F)F)c2)C(=S)N1c1ccc(C(N)=O)c(F)c1 [(MII)] | −7
CC1(C)C(=O)N(c2ccc(C#N)c(C(F)(F)F)c2)C(=O)N1c1ccc(C(N)=O)c(F)c1 [(MIII)] | −5

Data point: CNC(=O)c1ccc(N2C(=O)N(c3ccc(C#N)c(C(F)(F)F)c3)C(=O)C2(C)C)cc1F [(MIV)] ; % Inhibition of Control Specific Binding @ 10 μM = −3

====

molecular target: Cholecystokinin CCK1 (CCKA) (h) (Homo sapiens); construct: expressed in transfected cells; host or cells: CHO cells; assay: Binding CCK1 (CCKA) (h) (ag); conditions: read-out: % Inhibition of Control Specific Binding @ 10 μM
Sequence (P32238 whole entry): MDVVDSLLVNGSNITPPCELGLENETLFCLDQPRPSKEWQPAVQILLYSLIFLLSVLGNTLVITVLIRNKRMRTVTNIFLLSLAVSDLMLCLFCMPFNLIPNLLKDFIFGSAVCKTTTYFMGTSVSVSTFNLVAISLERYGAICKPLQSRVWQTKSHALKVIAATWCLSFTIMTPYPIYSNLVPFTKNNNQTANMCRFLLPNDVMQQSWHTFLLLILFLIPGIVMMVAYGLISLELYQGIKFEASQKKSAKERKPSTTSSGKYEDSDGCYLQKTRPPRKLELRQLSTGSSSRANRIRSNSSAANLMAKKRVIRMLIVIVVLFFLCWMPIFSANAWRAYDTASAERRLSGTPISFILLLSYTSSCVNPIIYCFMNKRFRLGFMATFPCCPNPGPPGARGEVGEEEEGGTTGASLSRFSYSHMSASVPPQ
Record form. Attribute: inhibition at 10 µM. Fill in for each entry.
Numbers only, in %.

CNC(=O)c1ccc(N2C(=O)N(c3ccc(C#N)c(C(F)(F)F)c3)C(=O)C2(C)C)cc1F | 25
CC1(C)C(=O)N(c2ccc(C#N)c(C(F)(F)F)c2)C(=S)N1c1ccc(C(=O)O)c(F)c1 | 47
CC1(C)C(=O)N(c2ccc(C#N)c(C(F)(F)F)c2)C(=S)N1c1ccc(C(N)=O)c(F)c1 | 0

# next compound below
Lab note: measured inhibition at 10 µM of `CC1(C)C(=O)N(c2ccc(C#N)c(C(F)(F)F)c2)C(=O)N1c1ccc(C(N)=O)c(F)c1` was -14

====

tested on: Ca^2+ channel (L, dihydropyridine site); assay: Binding Ca2+ channel (L, dihydropyridine site) (aa); set-up: species or system rat
assay metric: % Inhibition of Control Specific Binding @ 10 μM (%)
Answers are plain numbers, in %.

Guide cases for % Inhibition of Control Specific Binding @ 10 μM, answers given:
CC1(C)C(=O)N(c2ccc(C#N)c(C(F)(F)F)c2)C(=S)N1c1ccc(C(=O)O)c(F)c1 | 16
CNC(=O)c1ccc(N2C(=O)N(c3ccc(C#N)c(C(F)(F)F)c3)C(=O)C2(C)C)cc1F | 16
CC1(C)C(=O)N(c2ccc(C#N)c(C(F)(F)F)c2)C(=O)N1c1ccc(C(N)=O)c(F)c1 | −2

Now consider the entry below.
The recorded % Inhibition of Control Specific Binding @ 10 μM for entry `CC1(C)C(=O)N(c2ccc(C#N)c(C(F)(F)F)c2)C(=S)N1c1ccc(C(N)=O)c(F)c1` equals 18

====

target: β1 (h) (Homo sapiens, UniProt P08588); construct: expressed in transfected cells; host or cells: HEK-293 cells; experiment: Binding β1 (h) (ag); conditions: read-out: % Inhibition of Control Specific Binding @ 10 μM
Sequence (P08588 whole entry): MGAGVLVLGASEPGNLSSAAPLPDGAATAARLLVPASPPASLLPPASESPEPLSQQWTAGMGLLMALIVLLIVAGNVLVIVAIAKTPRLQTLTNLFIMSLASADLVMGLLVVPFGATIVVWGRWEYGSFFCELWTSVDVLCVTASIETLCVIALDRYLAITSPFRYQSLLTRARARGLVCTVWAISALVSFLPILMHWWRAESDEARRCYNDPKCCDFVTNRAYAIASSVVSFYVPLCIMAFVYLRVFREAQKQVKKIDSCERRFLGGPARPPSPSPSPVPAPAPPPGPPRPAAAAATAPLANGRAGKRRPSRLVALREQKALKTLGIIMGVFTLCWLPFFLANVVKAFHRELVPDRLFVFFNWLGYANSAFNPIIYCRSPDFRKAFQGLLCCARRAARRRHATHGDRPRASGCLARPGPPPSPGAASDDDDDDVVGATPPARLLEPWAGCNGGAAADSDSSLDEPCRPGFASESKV
Give measured inhibition at 10 µM for each item. Keep answers brief.
Numbers only, in %.

Reference set (3 entries):
CC1(C)C(=O)N(c2ccc(C#N)c(C(F)(F)F)c2)C(=S)N1c1ccc(C(N)=O)c(F)c1 [(MII)] | -7
CNC(=O)c1ccc(N2C(=O)N(c3ccc(C#N)c(C(F)(F)F)c3)C(=O)C2(C)C)cc1F [(MIV)] | 3
CC1(C)C(=O)N(c2ccc(C#N)c(C(F)(F)F)c2)C(=S)N1c1ccc(C(=O)O)c(F)c1 [(MI)] | -2

Okay, next one:
Form: compound = CC1(C)C(=O)N(c2ccc(C#N)c(C(F)(F)F)c2)C(=O)N1c1ccc(C(N)=O)c(F)c1 [(MIII)] ; inhibition at 10 µM = 2

====

Hi there, I'd appreciate the recorded % Inhibition of Control Specific Binding @ 10 μM for every entry that follows.
test system: Progesterone PR (h); test: Binding PR (h) (ag); set-up: species or system human
One number for each entry, in %.

Example cases with answers are listed next.
CC1(C)C(=O)N(c2ccc(C#N)c(C(F)(F)F)c2)C(=O)N1c1ccc(C(N)=O)c(F)c1 | 8
CC1(C)C(=O)N(c2ccc(C#N)c(C(F)(F)F)c2)C(=S)N1c1ccc(C(=O)O)c(F)c1 | 23
CC1(C)C(=O)N(c2ccc(C#N)c(C(F)(F)F)c2)C(=S)N1c1ccc(C(N)=O)c(F)c1 | 74

Tested on Progesterone PR (h): `CNC(=O)c1ccc(N2C(=O)N(c3ccc(C#N)c(C(F)(F)F)c3)C(=O)C2(C)C)cc1F` . Observed % Inhibition of Control Specific Binding @ 10 μM: 11

====

Test system: Ca^2+ channel (L, diltiazem site) (benzothiazepines)
Assay: Binding Ca2+ channel (L, diltiazem site) (aa)
Set-up: species or system rat
Description: Radioligand binding assay methods utilized to measure the activity of compounds of the invention will be familiar to those skilled in the art. […] Analysis and Expression of Results: Compounds of the invention were tested in the biochemical assays and percent inhibition of specific binding was determined. The specific ligand binding to the receptors is defined as the difference between the total binding and the nonspecific binding determined in the presence of an excess of unlabelled ligand. […]
assay metric: % Inhibition of Control Specific Binding @ 10 μM (%)
Give bare numbers, in %.

Some molecules with recorded % Inhibition of Control Specific Binding @ 10 μM:
CC1(C)C(=O)N(c2ccc(C#N)c(C(F)(F)F)c2)C(=S)N1c1ccc(C(N)=O)c(F)c1 [(MII)] | 22
CC1(C)C(=O)N(c2ccc(C#N)c(C(F)(F)F)c2)C(=S)N1c1ccc(C(=O)O)c(F)c1 [(MI)] | 2
CC1(C)C(=O)N(c2ccc(C#N)c(C(F)(F)F)c2)C(=O)N1c1ccc(C(N)=O)c(F)c1 [(MIII)] | −2

Shift focus to the following entry.
Noted for CNC(=O)c1ccc(N2C(=O)N(c3ccc(C#N)c(C(F)(F)F)c3)C(=O)C2(C)C)cc1F [(MIV)] : its % Inhibition of Control Specific Binding @ 10 μM reads 1
